Data origin: paper PMC4336329

Molecular target: human ether-à-go-go-related gene (hERG) potassium channel (human)
Test: primary screen, population patch clamp on CHO cells stably expressing hERG; higher = less effect of the substance
The whole screen tested about 310,000 compounds, of which about 14,000 (4.5%) showed an effect of 50% or more. The effect is printed as a negative number. This is one part of a sample in which strong results are shown more often than they occur.
METRIC NAME: hERG current change (%, negative = inhibition) at 10uM
Quick note: number first, unit second.

COc1cc(C(=O)N2CCN(c3ncnc4sc(C)c(C)c34)CC2)cc(OC)c1OC	-47.2%
CCc1cc2c(N3CCN(c4ccccc4)CC3)ncnc2s1	-43.5%
COc1ccc(-c2csc3ncnc(N4CCN(c5ccc(OC)cc5)CC4)c23)cc1	-11.2%
CCc1cc2c(N3CCN(C(=O)c4ccco4)CC3)ncnc2s1	-77.7%

Q: Can you share its hERG current change (%, negative = inhibition) at 10uM? I mean this compound: `COc1ccc(-c2nsc3c(N4CCN(C(=O)c5ccco5)CC4)ncnc23)cc1`
A: 10.9%

====

The compounds listed here are annotated with their hERG current change (%, negative = inhibition) at 10uM.
Target: human ether-à-go-go-related gene (hERG) potassium channel (human)
Experiment: primary screen, population patch clamp on CHO cells stably expressing hERG; higher = less effect of the substance
About 14,000 (4.5%) of roughly 310,000 compounds showed an effect of 50% or more. Effects have a minus sign here. What follows is part of a selection rich in strong results, with near analogues and random picks from the rest.
Your answer is read as %, so omit the unit and give the number.

O=C(COc1ccccc1Cl)c1ccc2c(c1)CCCC2	-0.256
CCn1c(SCC(=O)NCc2cccs2)nnc1-c1cccs1	-20.9
O=C(CCNC(=O)c1ccc(Cl)cc1)NCC(c1ccco1)N1CCCCC1 (centres unmarked)	-31
COc1ccc(CNC(=O)CCCNS(=O)(=O)c2cccc3nonc23)cc1	-1.27
C=CCn1c(CSCc2ccccc2)nnc1SCC(=O)N1CCN(c2ccccc2)CC1	-23.6

Q: Can you share its hERG current change (%, negative = inhibition) at 10uM? I mean this compound: `Cn1c(Cc2ccccc2)nnc1SCC(=O)N1CCN(c2ccccc2)CC1`
A: -14.5

====

Target: human ether-à-go-go-related gene (hERG) potassium channel (human, UniProt Q12809)
Sequence (Q12809 whole entry, looked up): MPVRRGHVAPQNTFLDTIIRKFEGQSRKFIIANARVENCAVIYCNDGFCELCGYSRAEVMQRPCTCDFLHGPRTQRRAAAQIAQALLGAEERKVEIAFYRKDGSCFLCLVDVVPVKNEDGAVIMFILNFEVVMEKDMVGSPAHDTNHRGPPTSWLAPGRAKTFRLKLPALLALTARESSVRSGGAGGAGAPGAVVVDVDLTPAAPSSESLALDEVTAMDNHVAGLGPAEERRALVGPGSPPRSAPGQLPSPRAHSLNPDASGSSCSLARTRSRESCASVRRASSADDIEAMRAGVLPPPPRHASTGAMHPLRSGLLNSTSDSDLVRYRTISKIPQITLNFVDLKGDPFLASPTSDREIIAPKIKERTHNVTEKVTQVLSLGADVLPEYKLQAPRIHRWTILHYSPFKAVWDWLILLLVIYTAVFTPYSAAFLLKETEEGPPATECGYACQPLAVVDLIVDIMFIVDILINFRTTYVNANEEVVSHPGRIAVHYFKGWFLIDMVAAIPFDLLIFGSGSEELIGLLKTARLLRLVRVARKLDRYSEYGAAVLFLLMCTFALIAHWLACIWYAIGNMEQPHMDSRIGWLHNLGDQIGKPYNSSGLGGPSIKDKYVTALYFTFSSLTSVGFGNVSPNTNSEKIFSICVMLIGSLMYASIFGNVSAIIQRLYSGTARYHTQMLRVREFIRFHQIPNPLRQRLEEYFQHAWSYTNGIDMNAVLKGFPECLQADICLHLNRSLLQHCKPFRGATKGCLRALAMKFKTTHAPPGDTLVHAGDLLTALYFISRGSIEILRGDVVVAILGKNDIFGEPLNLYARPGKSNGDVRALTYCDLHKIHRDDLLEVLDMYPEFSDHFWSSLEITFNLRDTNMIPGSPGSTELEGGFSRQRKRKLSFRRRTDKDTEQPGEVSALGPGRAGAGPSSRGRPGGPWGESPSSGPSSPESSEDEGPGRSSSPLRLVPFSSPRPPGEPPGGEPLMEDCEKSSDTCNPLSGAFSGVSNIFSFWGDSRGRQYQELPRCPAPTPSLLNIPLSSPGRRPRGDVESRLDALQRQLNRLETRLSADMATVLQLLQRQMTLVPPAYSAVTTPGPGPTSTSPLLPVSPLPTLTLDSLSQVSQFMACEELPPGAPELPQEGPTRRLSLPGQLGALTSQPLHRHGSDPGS
Test: primary screen, population patch clamp on CHO cells stably expressing hERG; higher = less effect of the substance
About 14,000 (4.5%) of roughly 310,000 compounds showed an effect of 50% or more. Effects have a minus sign here. The list comes from a sample in which strong results are over-represented; it also holds close analogues and randomly drawn compounds.
METRIC NAME: hERG current change (%, negative = inhibition) at 10uM (%)
Your answer is read as %, so omit the unit and give the number.

Field: example entries. Status: answers known.
O=C(NCc1cccnc1)c1cccnc1-c1nc2ccccc2s1	-14
CC(C)=CCCC1=CCC2C(=O)NNC(=O)C2C1 (stereo not shown)	9.53
c1cncc(-c2nc3ccccc3s2)c1	2.39
CCn1c(SCC(=O)NC2CCCc3ccccc32)nnc1-c1cccs1 (stereo not shown)	-24.6
CC(C)=CCCC1=CCC(/C(C)=N/NC(N)=O)CC1 (stereo not shown)	-53.7
O=C(NCCNc1ccc([N+](=O)[O-])cc1)c1ccc(Cl)cc1	-52.8
CC(=O)N(Cc1cccnc1)c1cccc(-c2nc3ccccc3s2)c1	-51.1
CCOc1ccc2nc(NCCNC(=O)c3cc(OC)c(OC)c(OC)c3)c(C#N)cc2c1	5.24
O=C(Cn1cnnn1)Nc1cccc(S(=O)(=O)N2CCCCC2)c1	18.2

Could you now consider this next molecule?
Q: Can you share its hERG current change (%, negative = inhibition) at 10uM? I mean this molecule: `COc1ccc(C(=O)NCCNc2ccc([N+](=O)[O-])cc2)cc1`
A: -40.9

====

Molecular target: human ether-à-go-go-related gene (hERG) potassium channel (human)
Experiment: primary screen, population patch clamp on CHO cells stably expressing hERG; higher = less effect of the substance
Among all 310,000 compounds or so, about 14,000 (4.5%) showed an effect of 50% or more. The effect is printed as a negative number. Shown is part of a subset that was picked to be rich in strong results.
The compounds listed here are annotated with their hERG current change (%, negative = inhibition) at 10uM.
Your answer is read as %, so omit the unit and give the number.

Q: Can you share its hERG current change (%, negative = inhibition) at 10uM? I mean this compound: `COc1ccc(SC[C@H](Cc2ccccc2)N2CCN(C)CCC2=O)cc1`
A: -52.2

====

Target: human ether-à-go-go-related gene (hERG) potassium channel (human, UniProt Q12809)
Assay: primary screen, population patch clamp on CHO cells stably expressing hERG; higher = less effect of the substance
Out of some 310,000 compounds screened, about 14,000 (4.5%) showed an effect of 50% or more. The effect is printed as a negative number. For the sample, strong results were picked, then their nearest neighbours and some compounds at random.
METRIC NAME: hERG current change (%, negative = inhibition) at 10uM
Quick note: number first, unit second.

CC1=C(C(=O)N2CCCC(C(=O)c3cccc(C(F)(F)F)c3)C2)OCCO1 (stereo not drawn)	2.26%
CCn1ncc(Br)c1C(=O)NC(C)c1ccccc1 (stereo not drawn)	3.91%
Cc1noc(C)c1C(=O)N1CCCC(C(=O)c2cccc(C(F)(F)F)c2)C1 (stereo not drawn)	-22.6%
O=C(NC(=S)Nc1ccc(CN2CCCCC2)cc1)c1cc2ccccc2o1	-24.3%

Q: Write down the reported hERG current change (%, negative = inhibition) at 10uM of `CCCCOCCCNC(=O)c1ccc(OC)cc1` , test system: human ether-à-go-go-related gene (hERG) potassium channel (human, UniProt Q12809).
A: -6.63%

Q: Write down the reported hERG current change (%, negative = inhibition) at 10uM of `CCOc1ccc(NC(=O)CN2CCN(CC(=O)Nc3cc(OC)cc(OC)c3)CC2)cc1` , test system: human ether-à-go-go-related gene (hERG) potassium channel (human, UniProt Q12809).
A: -74.9%

Q: Write down the reported hERG current change (%, negative = inhibition) at 10uM of `O=C(O)c1cccc(NC2=Nc3cccc4cccc2c34)c1` , test system: human ether-à-go-go-related gene (hERG) potassium channel (human, UniProt Q12809).
A: 14.3%

Q: Write down the reported hERG current change (%, negative = inhibition) at 10uM of CCOC(=O)c1c(C)[nH]c(C(=O)C(C)OC(=O)c2cnc(C)cn2)c1C (stereo not drawn) , test system: human ether-à-go-go-related gene (hERG) potassium channel (human, UniProt Q12809).
A: -0.804%

Q: Write down the reported hERG current change (%, negative = inhibition) at 10uM of Cc1nonc1CC(=O)N1CCCC(C(=O)c2cccc(C(F)(F)F)c2)C1 (stereo not drawn) , test system: human ether-à-go-go-related gene (hERG) potassium channel (human, UniProt Q12809).
A: -56.2%

Q: Write down the reported hERG current change (%, negative = inhibition) at 10uM of `Cc1cc(=O)c(C(=O)O)nn1-c1cccc(C(F)(F)F)c1` , test system: human ether-à-go-go-related gene (hERG) potassium channel (human, UniProt Q12809).
A: -74.6%

Q: Write down the reported hERG current change (%, negative = inhibition) at 10uM of `CCN1CCN(c2ccc(S(=O)(=O)N3CCCC3)cn2)CC1` , test system: human ether-à-go-go-related gene (hERG) potassium channel (human, UniProt Q12809).
A: 16.2%

Q: Write down the reported hERG current change (%, negative = inhibition) at 10uM of `O=C(NCCCN1CCCC1=O)c1ccc2c(=O)n(Cc3ccco3)c(=S)[nH]c2c1` , test system: human ether-à-go-go-related gene (hERG) potassium channel (human, UniProt Q12809).
A: -17.8%

Q: Write down the reported hERG current change (%, negative = inhibition) at 10uM of `O=C(Nc1nnc(-c2ccc(Cl)cc2)o1)Nc1ccccc1F` , test system: human ether-à-go-go-related gene (hERG) potassium channel (human, UniProt Q12809).
A: 1.31%

Q: Write down the reported hERG current change (%, negative = inhibition) at 10uM of O=C(COC(=O)Cc1cccc(C(F)(F)F)c1)NCC1CCCO1 (stereo not drawn) , test system: human ether-à-go-go-related gene (hERG) potassium channel (human, UniProt Q12809).
A: 1.46%

Q: Write down the reported hERG current change (%, negative = inhibition) at 10uM of `Cc1cc(=O)c(C(=O)O)nn1-c1ccccc1` , test system: human ether-à-go-go-related gene (hERG) potassium channel (human, UniProt Q12809).
A: 5.86%

Q: Write down the reported hERG current change (%, negative = inhibition) at 10uM of `O=C(Nc1cc(Cl)ccc1Oc1ccccc1)c1ccc(F)cc1` , test system: human ether-à-go-go-related gene (hERG) potassium channel (human, UniProt Q12809).
A: -14.1%

Q: Write down the reported hERG current change (%, negative = inhibition) at 10uM of `N#CC1(NC(=O)CN2c3cccc4cccc(c34)S2(=O)=O)CCCCC1` , test system: human ether-à-go-go-related gene (hERG) potassium channel (human, UniProt Q12809).
A: 14.9%

Q: Write down the reported hERG current change (%, negative = inhibition) at 10uM of CC1C(=O)N2CCCc3cc(S(=O)(=O)N4CCN(c5ccccc5F)CC4)cc1c32 (stereo not drawn) , test system: human ether-à-go-go-related gene (hERG) potassium channel (human, UniProt Q12809).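 Also: peak tail current of the secondary pulse compared with the same well before compound.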
A: -8.8%

Q: Write down the reported hERG current change (%, negative = inhibition) at 10uM of CC1C(=O)N2CCCc3cc(S(=O)(=O)N4CCN(c5ccc(F)cc5)CC4)cc1c32 (stereo not drawn) , test system: human ether-à-go-go-related gene (hERG) potassium channel (human, UniProt Q12809).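 Also: peak tail current of the secondary pulse compared with the same well before compound.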
A: -50.3%

Q: Write down the reported hERG current change (%, negative = inhibition) at 10uM of Cc1nonc1CC(=O)N1CCCC(C(=O)c2ccc(Cl)cc2)C1 (stereo not drawn) , test system: human ether-à-go-go-related gene (hERG) potassium channel (human, UniProt Q12809).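 Also: peak tail current of the secondary pulse compared with the same well before compound.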
A: -8.66%

Q: Write down the reported hERG current change (%, negative = inhibition) at 10uM of `CCOc1ccc(NC(=O)CN2CCN(c3ccc(F)cc3)CC2)cc1` , test system: human ether-à-go-go-related gene (hERG) potassium channel (human, UniProt Q12809).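 Also: peak tail current of the secondary pulse compared with the same well before compound.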
A: -22.2%
